Tested on: K562 CRISPRi cells
Assay: Constant region variant library pooled growth screen, K562
Assay type: cell-based, human
Settings: sgRNA constant region variants; activity relative to the original, un-modified constant region cr995
Kindly supply the reported Mean relative activity values for the records listed here.

Molecule	Endpoint value
cr699 (nucleic acid, listed as DNA, chemistry not fully specified) guide: GTTTAAGAGCTAAGCTGGAAACAGCATAGCAAGTTTAAATAAGGGTACTCCGTTATCAACGCGAAAGCGTGGCACCGAGTCGGTGCT	0.6628
cr060 (nucleic acid, listed as DNA, chemistry not fully specified) guide: GTGCAAGAGCTAAGCTGGAAACAGCATAGCAAGTTTAAATAAGGCTAGTCCGTTATCAACTTGAAAAAGTGGCACCGAGTCGGTGCT	0.005182
cr335 (nucleic acid, listed as DNA, chemistry not fully specified) guide: GTTTAAGAGCTAAGCTGGAAACAGCATAGCAAGTTTAAATAAGGCTAGTCCGTTATCAACTTGAAAAAGTGACGCCGAGTCGGCGTT	1.036

Would you mind telling me what Mean relative activity value was observed for cr764 (nucleic acid, listed as DNA, chemistry not fully specified) guide: GTTTAAGAGCTAAGCTGGAAACAGCATAGCAACTTTAAATAAGGCTAGTCCGTTATCAACTTGAAAAAGTGGCACCGAGTCGGTGCT ? 0.04863
